// data source = patent US20220257706A1

tested.system: EGFR-Fc, P00533
protocol.summary: TR-FRET competitive displacement of biotin-EGF from EGFR-Fc
readout.type: pIC50
Value format note: pIC50 is -log10 of concentration (mol/L); just state the number.

Ask: Give its pIC50 value. Item: QCKPNGAKCTEISIPPCCSNFCLRYAGQKSGTCANR (modifications not checked) [bleogen pB1]
Result: 5.76
